# EXPERIMENTAL_SYSTEM: αIIbβ3 integrin on human platelets (human, UniProt P08514 32-1039; P05106 27-788)
# METHOD_DESCRIPTION: cell-based or functional assay
Ends that are not written are not given here.
Please enter t where aggregation (IC50; nM), human platelets is greater than or equal to 70 nM, and f where it is lower.

# BINDER, CLASS_NAME
records = [
    ("engineered AgRP peptide 2bO (soluble, N-terminal FLAG tag and C-terminal hexahistidine tag) (ends and bridges not checked; cysteine pairing not given here, also called clone 2bO; αIIbβ3-specific peptide 2bO) DYKDDDDKGCVRLHESCLGQQVPCCDPAATCYCKKRGDWKERCYCRHHHHHH", "t"),
    ("engineered AgRP peptide b3I (soluble, N-terminal FLAG tag and C-terminal hexahistidine tag) (ends and bridges not checked; cysteine pairing not given here, also called clone b3I; β3-specific peptide b3I) DYKDDDDKGCVRLHESCLGQQVPCCDPAATCYCRGRGDVKLRCYCRHHHHHH", "f"),
    ("engineered AgRP peptide 2bJ (soluble, N-terminal FLAG tag and C-terminal hexahistidine tag) (ends and bridges not checked; cysteine pairing not given here, also called clone 2bJ; αIIbβ3-specific peptide 2bJ) DYKDDDDKGCVRLHESCLGQQVPCCDPAATCYCNKRGDWRSKCYCRHHHHHH", "t"),
    ("engineered AgRP peptide b3A (soluble, N-terminal FLAG tag and C-terminal hexahistidine tag) (ends and bridges not checked; cysteine pairing not given here, also called clone b3A; β3-specific peptide b3A) DYKDDDDKGCVRLHESCLGQQVPCCDPAATCYCVGRGDVRRKCYCRHHHHHH", "f"),
]
